Assay Overview: CHI Log D procedure
Assay type: physicochemical
Run Conditions: pH 7.4
Measured CHI Log D, listed per entry for reference.
Provide a numeric answer; units are not to be included.

1. CC(=O)N1CCC[C@]12CC=CCCCC1(CCCC=CCCCCCC[C@@](C)(C(=O)N[C@@H](Cc3ccccc3)C(=O)N[C@@H](Cc3csc4ccccc34)C(=O)N[C@@H](CCC(N)=O)C(N)=O)NC(=O)[C@H](CCC(N)=O)NC(=O)[C@H](Cc3ccccc3)NC(=O)[C@H](C)NC(=O)[C@H](C)NC(=O)[C@H](CCC(=O)O)NC(=O)[C@H](Cc3nn[nH]n3)NC1=O)NC(=O)[C@H](C)NC(=O)[C@H](CC(=O)O)NC2=O (stereo partly drawn) [I-414]: 2.096
2. CC[C@H](C)[C@@H]1NC(=O)[C@H](CC(=O)O)NC(=O)[C@]2(CC=CCCCC3(CCCC=CCCCCCC[C@@](C)(C(=O)N[C@@H](Cc4ccsc4)C(=O)N[C@@H](Cc4csc5ccccc45)C(=O)N[C@@H](CCC(N)=O)C(N)=O)NC(=O)[C@H](CC(N)=O)NC(=O)[C@H](Cc4ccccc4)NC(=O)[C@H](C)NC(=O)[C@H](C)NC(=O)[C@H](CN(CC(=O)O)CC(F)(F)F)NC(=O)[C@H](CC(=O)O)NC3=O)NC1=O)CCCN2C(C)=O (stereo partly drawn) [I-701]: 2.631

Read the next record carefully.
Query string: Read the entry CC(=O)N1CCC[C@]12CC=CCCCC1(CCCC=CCCCCCC[C@@](C)(C(=O)N[C@@H](Cc3ccccc3)C(=O)N[C@@H](Cc3c[nH]c4ccccc34)C(=O)N[C@@H](CCC(N)=O)C(N)=O)NC(=O)[C@H](C(C)C)NC(=O)[C@H](Cc3ccccc3)NC(=O)[C@H](C)NC(=O)[C@H](C)NC(=O)[C@H](CC(=O)O)NC(=O)[C@H](CC(=O)O)NC1=O)NC(=O)[C@H](C)NC(=O)[C@H](C)NC2=O (stereo partly drawn) [I-348] and write its reported CHI Log D.
Result string: 2.397

###

Test Target: full-length beta-Catenin (Uniprot ID P35222) (Homo sapiens, UniProt P35222)
Construct: 10 nM full-length beta-Catenin (Uniprot ID P35222)
Sequence (P35222 whole entry): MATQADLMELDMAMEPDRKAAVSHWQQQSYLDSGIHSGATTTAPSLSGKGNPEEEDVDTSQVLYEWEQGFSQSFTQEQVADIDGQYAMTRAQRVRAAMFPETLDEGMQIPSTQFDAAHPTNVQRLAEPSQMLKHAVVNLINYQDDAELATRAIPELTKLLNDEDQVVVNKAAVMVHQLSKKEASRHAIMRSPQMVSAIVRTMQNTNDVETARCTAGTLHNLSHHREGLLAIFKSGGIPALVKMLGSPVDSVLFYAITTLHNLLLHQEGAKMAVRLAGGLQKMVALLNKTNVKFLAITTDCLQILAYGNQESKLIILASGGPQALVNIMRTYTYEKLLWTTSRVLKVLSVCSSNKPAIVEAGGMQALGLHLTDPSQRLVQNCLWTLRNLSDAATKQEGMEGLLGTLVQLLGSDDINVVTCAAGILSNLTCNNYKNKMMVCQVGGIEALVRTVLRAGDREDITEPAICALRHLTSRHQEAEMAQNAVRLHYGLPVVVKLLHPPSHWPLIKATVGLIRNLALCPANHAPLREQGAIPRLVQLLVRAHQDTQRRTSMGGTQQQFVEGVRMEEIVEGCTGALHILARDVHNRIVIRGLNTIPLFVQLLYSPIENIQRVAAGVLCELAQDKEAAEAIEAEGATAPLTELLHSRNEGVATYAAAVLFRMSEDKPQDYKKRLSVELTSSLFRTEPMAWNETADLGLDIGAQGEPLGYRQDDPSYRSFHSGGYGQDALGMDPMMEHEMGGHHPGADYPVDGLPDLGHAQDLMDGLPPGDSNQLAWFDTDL
Assay Overview: Fluorescence polarization IC50 (beta-catenin / 5FAM-TCF4 10-53 competition)
Assay type: binding
Run Conditions: fluorescence polarization; read-out: beta-Catenin FP IC50
Property Name: IC50 (nM)
// units = nM; emit number, no label

Recorded results for 2 compounds are shown here.
1. CC(=O)N1CCC[C@]12CC=CCCCC1(CCCC=CCCCOC(=O)N3CC[C@@](C(=O)N[C@@H](Cc4cccc(C(N)=O)c4)C(=O)N[C@@H](Cc4csc5ccccc45)C(=O)N[C@@H](CCC(N)=O)C(N)=O)(C3)NC(=O)[C@H](CC(C)C)NC(=O)[C@H](Cc3ccccc3)NC(=O)[C@H](C)NC(=O)[C@H](CCCCNC(C)C)NC(=O)[C@H](CCC(N)=O)NC(=O)[C@H](CC(=O)O)NC1=O)NC(=O)[C@H](CC1CCCCC1)NC(=O)[C@H](CC(N)=O)NC2=O (stereo partly drawn): 3720
2. CC(=O)N1CCC[C@]12CC=CCCCC1(CCCC=CCCCOC(=O)N3CC[C@@](C(=O)N[C@@H](Cc4ccsc4)C(=O)N[C@@H](Cc4csc5ccccc45)C(=O)N[C@@H](CCO)C(N)=O)(C3)NC(=O)[C@H](CC(C)C)NC(=O)[C@H](Cc3ccccc3)NC(=O)[C@H](C)NC(=O)[C@H](C)NC(=O)[C@H](CC(=O)O)NC(=O)[C@H](CC(=O)O)NC1=O)NC(=O)[C@H](CO)NC(=O)[C@H](CC(=O)O)NC2=O (stereo partly drawn): 27

Query string: Provide the reported IC50 (system: full-length beta-Catenin (Uniprot ID P35222) (Homo sapiens, UniProt P35222)) for CC(=O)N1CCC[C@]12CC=CCCCC1(CCCC=CCCCOC(=O)N3CC[C@@](C(=O)N[C@@H](Cc4ccccc4)C(=O)N[C@@H](Cc4csc5ccccc45)C(=O)N[C@@H](CCC(N)=O)C(N)=O)(C3)NC(=O)[C@H](CC(C)C)NC(=O)[C@H](Cc3ccccc3)NC(=O)[C@H](C)NC(=O)[C@H](CCCCNC(C)C)NC(=O)[C@H](CCO)NC(=O)[C@H](CC(=O)O)NC1=O)NC(=O)[C@H](CC1CCCCC1)NC(=O)[C@H](CC(N)=O)NC2=O (stereo partly drawn) [I-2345]
Result string: 1270

Data credit: patent US20240116985A1
